Target: T1, huBCMA Fc(kih) (Homo sapiens, UniProt Q02223)
T1 construct: The extracellular domains of human and cynomolgus BCMA comprised methionine 4 to asparagine 53, and methionine 4 to asparagine 52, respectively; made in house; host or cells: HEK EBNA cells
T1 sequence (Q02223 4-53): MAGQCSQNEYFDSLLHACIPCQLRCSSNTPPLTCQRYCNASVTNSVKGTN
Assay: Biacore T200 SPR, anti-BCMA antibodies to recombinant human BCMA Fc(kih)
Format: binding
Conditions: analyte huBCMA Fc(kih), 1:1 Langmuir, 25° C.
For each record, write down the corresponding Koff.
Enter your answer as a number in s⁻¹; do not include the unit.

Ask: Name the recorded Koff for Mab 22: anti-BCMA antibody, VH SEQ ID NO:10, VL SEQ ID NO:13 (antibody, V domains shown, Variable region VH; Variable region VL Mab22) VH: EVQLLESGGGLVQPGGSLRLSCAASGFTFSDNAMGWVRQAPGKGLEWVSAISGPGSSTYYADSVKGRFTISRDNSKNTLYLQMNSLRAEDTAVYYCAKVLGWFDYWGQGTLVTVSS VL: EIVLTQSPGTLSLSPGERATLSCRASQSVSSYYLAWYQQKPGQAPRLLISGAGSRATGIPDRFSGSGSGTDFTLTISRLEPEDFAVYYCQQYGYPPDFTFGQGTKVEIK .
Result: 5.15e-05

Ask: Name the recorded Koff for Mab 27: anti-BCMA antibody, VH SEQ ID NO:38, VL SEQ ID NO:12 (antibody, V domains shown, Mab27 VH; Variable region VL) VH: EVQLLESGGGLVQPGGSLRLSCAASGFTFSSAPMGWVRQAPGKGLEWVSAISYIGHTYYADSVKGRFTISRDNSKNTLYLQMNSLRAEDTAVYYCAKVLGWFDYWGQGTLVTVSS VL: EIVLTQSPGTLSLSPGERATLSCRASQSVSEYYLAWYQQKPGQAPRLLIEHASTRATGIPDRFSGSGSGTDFTLTISRLEPEDFAVYYCQQYGYPPDFTFGQGTKVEIK .
Result: 5.93e-05

Ask: Name the recorded Koff for Mab 33: anti-BCMA antibody, VH SEQ ID NO:39, VL SEQ ID NO:12 (antibody, V domains shown, Mab33 VH; Variable region VL) VH: EVQLLESGGGLVQPGGSLRLSCAASGFTFYTNAMGWVRQAPGKGLEWVSAINRFGGSTYYADSVKGRFTISRDNSKNTLYLQMNSLRAEDTAVYYCAKVLGWFDYWGQGTLVTVSS VL: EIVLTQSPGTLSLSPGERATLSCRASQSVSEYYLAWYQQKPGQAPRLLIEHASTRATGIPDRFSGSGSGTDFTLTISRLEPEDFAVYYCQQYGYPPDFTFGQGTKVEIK .
Result: 3.55e-05

Ask: Name the recorded Koff for Mab 21: anti-BCMA antibody, VH SEQ ID NO:10, VL SEQ ID NO:12 (antibody, V domains shown, Variable region VH; Variable region VL) VH: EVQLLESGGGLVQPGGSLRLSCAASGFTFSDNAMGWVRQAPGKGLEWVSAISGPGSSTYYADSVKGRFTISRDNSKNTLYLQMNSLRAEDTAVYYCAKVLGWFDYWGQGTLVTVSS VL: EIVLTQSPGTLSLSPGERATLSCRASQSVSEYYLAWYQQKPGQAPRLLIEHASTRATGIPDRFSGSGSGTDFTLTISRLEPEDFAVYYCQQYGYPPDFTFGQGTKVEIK .
Result: 4.39e-05

Ask: Name the recorded Koff for Mab 39: anti-BCMA antibody, VH SEQ ID NO:40, VL SEQ ID NO:12 (antibody, V domains shown, Mab39 VH; Variable region VL) VH: EVQLLESGGGLVQPGGSLRLSCAASGFTFTQNAMGWVRQAPGKGLEWVSAISPTGFSTYYADSVKGRFTISRDNSKNTLYLQMNSLRAEDTAVYYCAKVLGWFDYWGQGTLVTVSS VL: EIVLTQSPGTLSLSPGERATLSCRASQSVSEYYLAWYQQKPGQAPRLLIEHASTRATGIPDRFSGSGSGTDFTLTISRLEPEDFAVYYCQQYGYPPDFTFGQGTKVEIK .
Result: 5.58e-05
